All values here come from patent US20210388081A1.

Target: T1, FcRL4, overexpressed on 3T3 cells (UniProt Q96PJ5 20-515, limits assumed)
T1 construct: whole, on cells
T1 sequence (looked up): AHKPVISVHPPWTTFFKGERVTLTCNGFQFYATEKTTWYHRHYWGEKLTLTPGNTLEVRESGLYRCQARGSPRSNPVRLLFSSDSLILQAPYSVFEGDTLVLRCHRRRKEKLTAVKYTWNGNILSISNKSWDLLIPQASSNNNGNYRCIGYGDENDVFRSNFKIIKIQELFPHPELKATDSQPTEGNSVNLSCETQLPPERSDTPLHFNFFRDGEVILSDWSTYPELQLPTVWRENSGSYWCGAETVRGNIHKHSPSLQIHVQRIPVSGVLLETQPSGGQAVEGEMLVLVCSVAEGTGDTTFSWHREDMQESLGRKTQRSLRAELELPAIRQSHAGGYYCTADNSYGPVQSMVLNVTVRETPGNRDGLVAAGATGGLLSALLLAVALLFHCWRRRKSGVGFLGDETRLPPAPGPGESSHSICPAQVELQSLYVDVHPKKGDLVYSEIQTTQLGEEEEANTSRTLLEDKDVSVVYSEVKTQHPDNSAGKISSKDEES
Assay: phage clone on 3T3-FcRL4 cells

{"BINDER": "ET200-021 (scFv, screened as phage clone; entry is VL-linker-VH-His tag-HA tag) scFv: QSVLTQPPSVSAAPGQKVTISCSGSNSNIGNNYVSWYQQLPGTAPKLLIYDNNKRPSGIPDRFSGSRSGTSATLGITGLQTGDEADYYCGTWNTTVTPGYVFGTGTKVTVLGSRGGGGSGGGGSGGGGSLEMAEVQLVQSGAEVKKPGASVKVSCKASGYTFTSYGISWVRQAPGQGLEWMGWISAYNGNTNYAQKLQGRVTMTTDTSTSTAYMELRSLRSDDTAMYYCARSVYDLDTWGQGTLVTVSSTSGQAGQHHHHHHGAYPYDVPDYAS", "binding result": "no binding"}
{"BINDER": "ET200-011 (scFv, screened as phage clone; entry is VL-linker-VH-His tag-HA tag) scFv: QSVVTQPPSVSAAPGQRVTISCSGSSSNISIYDVSWYQQLPGTAPKLLIYGNNKRPSGIADRFSGSTSGTSATLGITGLQTGDEADYYCGTWDDSLSGGVFGGGTKLTVLGSRGGGGSGGGGSGGGGSLEMAQMQLVQSGAEVKKPGSSVKVSCEASGGTLSSYAINWVRQAPGQGLEWMGGIIPMFGTAHYAQKFQGRVTITADESTKTAYMELSSLRSEDTAVYYCARGVHYASFDHWGQGTLVTVSSTSGQAGQHHHHHHGAYPYDVPDYAS", "binding result": "no binding"}
